System: MET
Experiment: MET biochemical kinase assay
Parameters: species or system human; concentration or dose not given beside the values
Measured quantity: Met Kinase % Inhibition (%)
# value in %; strip the unit string

Can you share its Met Kinase % Inhibition? I mean this molecule: O=C1Nc2ccc(CCCl)cc2C1=Cc1ccc[nH]1 [10717/G09] 19.1

Can you share its Met Kinase % Inhibition? I mean this molecule: CCN(CC)c1ccc(C=C2C(=O)Nc3ccc(S(=O)(=O)NC)cc32)c(O)c1 [10734/D05] 55.0

Can you share its Met Kinase % Inhibition? I mean this molecule: Cc1cc(C=C2C(=O)Nc3ccc(Br)c(C)c32)cc(C(C)(C)C)c1O [10726/C04] 91.7

Can you share its Met Kinase % Inhibition? I mean this molecule: Cc1cc(C=C2C(=O)Nc3ccc(S(=O)(=O)Nc4ccc(C(F)(F)F)cc4)cc32)oc1C [10730/E11] 77.2

Can you share its Met Kinase % Inhibition? I mean this molecule: COc1ccc(OC)c(C=C2C(=O)Nc3ccc(S(=O)(=O)Nc4ccc(C(F)(F)F)cc4)cc32)c1 [10728/E02] 5.4

Can you share its Met Kinase % Inhibition? I mean this molecule: Cc1cn(C)cc1C=C1C(=O)Nc2ccc(I)cc21 [10726/B06] 76.1

Can you share its Met Kinase % Inhibition? I mean this molecule: O=C1Nc2ccc(CCCl)cc2C1=Cc1ccc(F)cc1F [10722/G06] 12.2

Can you share its Met Kinase % Inhibition? I mean this molecule: CCOc1ccccc1C=C1C(=O)Nc2ccc(I)cc21 [10717/B02] 87.5

Can you share its Met Kinase % Inhibition? I mean this molecule: CC(C)c1cc(C=C2C(=O)Nc3ccc(CCCl)cc32)cc(C(C)C)c1O [10724/G06] 20.3

Can you share its Met Kinase % Inhibition? I mean this molecule: O=C1Nc2ccc(I)cc2C1=Cc1ccccc1Br [10723/B07] 86.7

Can you share its Met Kinase % Inhibition? I mean this molecule: O=C1Nc2ccc(S(=O)(=O)N3CCOCC3)cc2C1=Cc1c(Br)cnn1-c1ccc(Cl)cc1 [10725/F10] 14.2

Can you share its Met Kinase % Inhibition? I mean this molecule: CNS(=O)(=O)c1ccc2c(c1)C(=Cc1cc(C)c(OC)c(C)c1)C(=O)N2 [10733/D06] -19.4

Can you share its Met Kinase % Inhibition? I mean this molecule: O=C1Nc2ccc(S(=O)(=O)N3CCOCC3)cc2C1=Cc1sccc1Br [10725/F02] 27.8

Can you share its Met Kinase % Inhibition? I mean this molecule: O=C1Nc2c(Br)cc(Br)cc2C1=Cc1ccc(N2CCOCC2)cc1 [10725/A08] 45.3

Can you share its Met Kinase % Inhibition? I mean this molecule: COc1c(C(C)(C)C)cc(C=C2C(=O)Nc3ccc(I)cc32)cc1C(C)(C)C [10733/B04] 56.3

Can you share its Met Kinase % Inhibition? I mean this molecule: O=C1Nc2ccc(CCCl)cc2C1=Cc1cc2ccccc2nc1Cl [10730/G08] 16.6

Can you share its Met Kinase % Inhibition? I mean this molecule: CC(C)(C)c1cc(C=C2C(=O)Nc3ccc(CCCl)cc32)cc(Br)c1O [10721/G10] 12.0

Can you share its Met Kinase % Inhibition? I mean this molecule: CNS(=O)(=O)c1ccc2c(c1)C(=Cc1cc(Br)c(OC)c(C(C)(C)C)c1)C(=O)N2 [10732/D07] 43.2

Can you share its Met Kinase % Inhibition? I mean this molecule: CNS(=O)(=O)c1ccc2c(c1)C(=Cc1ccccc1OCC(=O)O)C(=O)N2 [10728/D10] 30.5

Can you share its Met Kinase % Inhibition? I mean this molecule: O=C1Nc2ccc(CCCl)cc2C1=Cc1ccc([N+](=O)[O-])cc1 [10734/G06] 43.1

Can you share its Met Kinase % Inhibition? I mean this molecule: Cc1c(Br)ccc2c1C(=Cc1ccco1)C(=O)N2 [10718/C10] 4.4

Can you share its Met Kinase % Inhibition? I mean this molecule: O=C1Nc2ccc(S(=O)(=O)N3CCOCC3)cc2C1=Cc1ccc[nH]1 [10717/F09] 41.4

Can you share its Met Kinase % Inhibition? I mean this molecule: COc1cc(O)ccc1C=C1C(=O)Nc2ccc(CCCl)cc21 [10720/G03] 42.1

Can you share its Met Kinase % Inhibition? I mean this molecule: O=C1Nc2ccc(I)cc2C1=Cc1ccc(Br)o1 [10726/B05] 96.8

Can you share its Met Kinase % Inhibition? I mean this molecule: Cc1c(Br)ccc2c1C(=Cc1coc3ccc(C(C)C)cc3c1=O)C(=O)N2 [10731/C05] 78.3

Can you share its Met Kinase % Inhibition? I mean this molecule: Cc1c(Br)ccc2c1C(=Cc1cc(C(C)(C)C)cc(C(C)(C)C)c1O)C(=O)N2 [10723/C11] 47.0

Can you share its Met Kinase % Inhibition? I mean this molecule: COC(=O)Cc1c(Cl)[nH]c(C=C2C(=O)Nc3ccc(I)cc32)c1C(=O)OC [10725/B09] 65.7

Can you share its Met Kinase % Inhibition? I mean this molecule: Cc1cc(C=C2C(=O)Nc3ccc(CCCl)cc32)sc1C [10721/G04] 90.3

Can you share its Met Kinase % Inhibition? I mean this molecule: COc1c(I)cc(C=C2C(=O)Nc3ccc(Br)c(C)c32)cc1C(C)(C)C [10732/C11] 31.9

Can you share its Met Kinase % Inhibition? I mean this molecule: O=C1Nc2ccc(I)cc2C1=Cc1ccccn1 [10729/B07] 58.2

Can you share its Met Kinase % Inhibition? I mean this molecule: O=C1Nc2c(Br)cc(Br)cc2C1=Cc1cc([N+](=O)[O-])ccc1O [10733/A10] 21.1

Can you share its Met Kinase % Inhibition? I mean this molecule: CCCCN(CCCC)c1ccc(C=C2C(=O)Nc3ccc(S(=O)(=O)NC)cc32)cc1 [10722/D10] 40.5

Can you share its Met Kinase % Inhibition? I mean this molecule: COc1cc(OC)c(OC)cc1C=C1C(=O)Nc2ccc(I)cc21 [10730/B03] 78.3

Can you share its Met Kinase % Inhibition? I mean this molecule: CC(C)(C)c1cc(C=C2C(=O)Nc3ccc(I)cc32)cc(Br)c1OCc1ccccc1 [10732/B08] 64.4

Can you share its Met Kinase % Inhibition? I mean this molecule: Cc1cc(C=C2C(=O)Nc3c(Br)cc(Br)cc32)oc1C [10730/A11] 91.0

Can you share its Met Kinase % Inhibition? I mean this molecule: O=C1Nc2c(Br)cc(Br)cc2C1=Cc1cc2c([nH]1)CCCC2 [10721/A05] 52.9

Can you share its Met Kinase % Inhibition? I mean this molecule: CC(C)(C)c1cc(C=C2C(=O)Nc3ccc(S(=O)(=O)Nc4ccc(C(F)(F)F)cc4)cc32)cc(C(C)(C)C)c1OCc1ccccc1 [10733/E05] 2.9

###

Test system: MET
Experiment: MET biochemical kinase assay
Set-up: species or system human; concentration or dose not given beside the values
Label Condition met for high-side Met Kinase % Inhibition (at or above 40%) and Condition not met for low-side Met Kinase % Inhibition (below it).

Evaluate O=C1Nc2ccc(CCCl)cc2C1=Cc1ccc(C(=O)O)cc1 [10722/G05] : Met Kinase % Inhibition at minimum 40%? Condition not met

Evaluate O=C1Nc2ccc(CCCl)cc2C1=Cc1cccc([N+](=O)[O-])c1 [10719/G10] : Met Kinase % Inhibition at minimum 40%? Condition not met

Evaluate CNS(=O)(=O)c1ccc2c(c1)C(=Cc1nn(C)cc1Cl)C(=O)N2 [10721/D03] : Met Kinase % Inhibition at minimum 40%? Condition not met

Evaluate Cc1cc(C)c(C=C2C(=O)Nc3ccc(I)cc32)[nH]1 [10721/B08] : Met Kinase % Inhibition at minimum 40%? Condition met

Evaluate CNS(=O)(=O)c1ccc2c(c1)C(=Cc1cc(C(C)(C)C)cc(C(C)(C)C)c1O)C(=O)N2 [10723/D11] : Met Kinase % Inhibition at minimum 40%? Condition met

Evaluate O=C(O)COc1ccccc1C=C1C(=O)Nc2c(Br)cc(Br)cc21 [10728/A10] : Met Kinase % Inhibition at minimum 40%? Condition met

Evaluate COc1cccc(C=C2C(=O)Nc3ccc(S(=O)(=O)N4CCOCC4)cc32)c1OC [10727/F11] : Met Kinase % Inhibition at minimum 40%? Condition not met

Evaluate O=C1Nc2c(Br)cc(Br)cc2C1=Cc1ccccc1O [10720/A05] : Met Kinase % Inhibition at minimum 40%? Condition met

Evaluate O=C1Nc2ccc(I)cc2C1=Cc1cc(Br)ccc1O [10733/B09] : Met Kinase % Inhibition at minimum 40%? Condition met
